# key: entry, value: % Inhibition
- Test system: human SMAD7 mRNA
- assayNotes: Antisense inhibition of human SMAD7 mRNA expression in Hep3B cells by 5-10-5 MOE gapmers, single concentration, electroporation, RT-PCR (Example 1, Study 1 and 2)
- Assay type: cell-based
- measurementConditions: Study 2, electroporation with 15,000 nM antisense oligonucleotide, 5-10-5 MOE gapmers targeting SEQ ID NO: 1 and 2
Strand notation (5' to 3'): a small letter for the sugar, then the base; units joined by * are phosphorothioate-linked, units joined directly phosphodiester-linked; [ ] holds rarer units or linkages, { } end groups; capitals alone tell only the bases. e = 2'-O-(2-methoxyethyl) (MOE); [5mC] = 5-methylcytosine; d = 2'-deoxy (DNA)
Output spec: scalar in %, unitless text.

• 771948 (antisense e[5mC]*eA*e[5mC]*e[5mC]*e[5mC]*dA*dG*d[5mC]*dT*d[5mC]*dT*d[5mC]*dA*dA*dA*eT*e[5mC]*eA*eG*eT) [compound 771948] = 0
• 771892 (antisense e[5mC]*eT*eG*eA*eA*dG*dT*dT*dT*d[5mC]*dT*d[5mC]*d[5mC]*dT*d[5mC]*e[5mC]*e[5mC]*eA*eT*e[5mC]) [compound 771892] = 2
• 771402 (antisense e[5mC]*eA*eG*eG*e[5mC]*dG*d[5mC]*dA*dG*dG*d[5mC]*dG*dA*d[5mC]*dA*eG*e[5mC]*eA*eG*e[5mC]) [compound 771402] = 31
• 771448 (eG*eA*eG*eT*e[5mC]*dG*dG*d[5mC]*dT*dA*dA*dG*dG*dT*dG*eA*eT*eG*eG*eG; antisense) [compound 771448] = 29
• 771703 (antisense eG*eG*eA*eG*eG*dG*dT*dA*dT*dG*d[5mC]*dA*d[5mC]*dA*d[5mC]*eT*e[5mC]*eT*e[5mC]*e[5mC]) [compound 771703] = 31

query: What % Inhibition value was documented for this substance, 771811 (antisense eT*eG*e[5mC]*e[5mC]*eT*d[5mC]*dA*dT*dT*d[5mC]*dT*dT*dT*d[5mC]*d[5mC]*eA*eG*eG*eA*e[5mC]) [compound 771811] ?
result: 50

query: Form field: reported % Inhibition of 771827 (antisense eA*eA*eG*eG*eA*d[5mC]*dA*dT*d[5mC]*dA*d[5mC]*dA*dG*dG*dG*eA*e[5mC]*eT*eG*eG) [compound 771827]
result: 33

query: Name the reported % Inhibition value associated with the substance 771886 (antisense eA*eA*e[5mC]*e[5mC]*eA*dG*dG*dT*dT*d[5mC]*d[5mC]*d[5mC]*dA*d[5mC]*dT*eG*eT*eT*eA*e[5mC]) [compound 771886]
result: 0

====

- assayNotes: Hematology assays after subcutaneous administration in CD-1 mice (Example 6)
- Assay type: in vivo
- measurementConditions: 50 mg/kg subcutaneous twice weekly for 7 weeks
Strand notation (5' to 3'): a small letter for the sugar, then the base; units joined by * are phosphorothioate-linked, units joined directly phosphodiester-linked; [ ] holds rarer units or linkages, { } end groups; capitals alone tell only the bases. k = constrained ethyl (cEt); [5mC] = 5-methylcytosine; d = 2'-deoxy (DNA)
// reported MCHC for each item listed
Give just the number in g/dL; leave the unit off.

- 830121 (AGAATCAAGCCCTGGC; 3-10-3 cEt gapmer, further chemistry not given here) [compound 830121]: 33.6
- 799144 (antisense kT*kT*kG*dG*dG*dT*dT*dA*dT*dG*dA*d[5mC]*dG*kG*kA*k[5mC]) [compound 799144]: 33.2

// next item, MCHC requested
query: Item 798781 (CGTAAGATTCACAGCA; 3-10-3 cEt gapmer, further chemistry not given here) [compound 798781] has what recorded MCHC?
result: 32.6
